Field: Kd. Provide a value for each of the compounds that follow.
Target system: High affinity nerve growth factor receptor (Homo sapiens); note: in the data inactive means no Kd found up to 30 µM
Sequence (P04629 whole entry): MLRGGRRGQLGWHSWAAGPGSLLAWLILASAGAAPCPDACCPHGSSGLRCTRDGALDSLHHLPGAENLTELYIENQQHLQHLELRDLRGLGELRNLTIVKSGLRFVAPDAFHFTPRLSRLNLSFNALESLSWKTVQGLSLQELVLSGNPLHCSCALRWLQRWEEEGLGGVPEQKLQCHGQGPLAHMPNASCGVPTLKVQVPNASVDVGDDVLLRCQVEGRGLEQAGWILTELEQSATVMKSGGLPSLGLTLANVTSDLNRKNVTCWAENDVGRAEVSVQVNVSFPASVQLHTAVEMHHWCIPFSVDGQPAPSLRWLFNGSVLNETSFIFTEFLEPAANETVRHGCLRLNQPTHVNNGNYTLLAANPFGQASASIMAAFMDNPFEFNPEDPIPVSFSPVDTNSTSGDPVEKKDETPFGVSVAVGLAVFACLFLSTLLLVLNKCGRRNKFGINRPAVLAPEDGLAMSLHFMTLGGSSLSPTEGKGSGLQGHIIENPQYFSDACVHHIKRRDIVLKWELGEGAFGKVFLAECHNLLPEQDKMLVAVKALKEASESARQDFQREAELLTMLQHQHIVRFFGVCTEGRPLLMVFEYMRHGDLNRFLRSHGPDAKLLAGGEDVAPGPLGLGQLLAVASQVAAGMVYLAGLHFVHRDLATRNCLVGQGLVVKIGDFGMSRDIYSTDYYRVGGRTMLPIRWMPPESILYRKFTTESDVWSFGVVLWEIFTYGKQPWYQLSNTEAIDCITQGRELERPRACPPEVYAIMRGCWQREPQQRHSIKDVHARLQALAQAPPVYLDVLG
Active and inactive are the calls of the source.

IN: Quickly give me recorded Kd for Cc1cccc(-c2nn3c(c2-c2ccnc4ccc(C(N)=O)cc24)CCC3)n1 [GALUNISERTIB]
OUT: > 30 µM (inactive)

IN: Quickly give me recorded Kd for CCS(=O)(=O)c1cccc(-c2cc(C(=O)NC3CCN(C)CC3)c(C)c3[nH]c4ncc(C)cc4c23)c1 [TAK-901]
OUT: 0.843 µM (active)

IN: Quickly give me recorded Kd for C=CC(=O)Nc1cc2c(Nc3ccc(F)c(Cl)c3)ncnc2cc1C#CC(C)(C)N1CCN(C)CC1 [AV-412 FREE BASE]
OUT: > 30 µM (inactive)

IN: Quickly give me recorded Kd for Cc1csc(-c2nnc(Nc3ccc(Oc4ncccc4-c4ccnc(N)n4)cc3)c3ccccc23)c1 [AMG-900]
OUT: > 30 µM (inactive)

----------
Target system: Ribosomal protein S6 kinase alpha-6 (Homo sapiens, UniProt Q9UK32); note: in the data inactive means no Kd found up to 30 µM
Sequence (Q9UK32 whole entry): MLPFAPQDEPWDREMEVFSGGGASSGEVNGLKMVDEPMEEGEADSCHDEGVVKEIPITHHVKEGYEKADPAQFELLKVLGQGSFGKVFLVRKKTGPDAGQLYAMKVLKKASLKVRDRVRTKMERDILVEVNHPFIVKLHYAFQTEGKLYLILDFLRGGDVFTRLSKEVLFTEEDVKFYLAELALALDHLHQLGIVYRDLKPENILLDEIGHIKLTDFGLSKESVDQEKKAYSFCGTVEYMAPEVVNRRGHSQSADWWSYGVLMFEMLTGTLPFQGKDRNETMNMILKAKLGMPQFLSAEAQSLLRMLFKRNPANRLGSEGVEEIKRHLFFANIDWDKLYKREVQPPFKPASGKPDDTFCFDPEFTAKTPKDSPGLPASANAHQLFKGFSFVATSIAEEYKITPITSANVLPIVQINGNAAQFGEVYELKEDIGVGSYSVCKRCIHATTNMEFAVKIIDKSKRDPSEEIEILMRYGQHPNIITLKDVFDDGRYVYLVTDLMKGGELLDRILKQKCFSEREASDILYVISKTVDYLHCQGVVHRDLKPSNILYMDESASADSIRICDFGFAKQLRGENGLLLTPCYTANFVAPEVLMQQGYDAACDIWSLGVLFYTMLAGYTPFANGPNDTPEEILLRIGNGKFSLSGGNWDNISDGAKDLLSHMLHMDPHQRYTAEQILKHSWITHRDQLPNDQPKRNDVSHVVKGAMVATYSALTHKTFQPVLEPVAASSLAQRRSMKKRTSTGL
Where a name gives a salt, the structure may show the parent alone. Active and inactive are the calls of the source.
Log the outcome using a class from T (active), F (inactive)

IN: Record request — test call for CCOc1cc2ncc(C#N)c(Nc3ccc(F)c(Cl)c3)c2cc1NC(=O)/C=C/CN(C)C [PELITINIB]
OUT: F

IN: Record request — test call for CCS(=O)(=O)c1cccc(-c2cc(C(=O)NC3CCN(C)CC3)c(C)c3[nH]c4ncc(C)cc4c23)c1 [TAK-901]
OUT: T

IN: Record request — test call for "CCNC(=O)C#Cc1ccc2c(c1)NC(=O)/C2=C(\Nc1ccc(CN(C)C)cc1)c1ccccc1"
OUT: F

IN: Record request — test call for CC(C)(C)c1nc(-c2cccc(NS(=O)(=O)c3c(F)cccc3F)c2F)c(-c2ccnc(N)n2)s1 [DABRAFENIB]
OUT: F

IN: Record request — test call for COc1cc([C@@H]2c3cc4c(cc3[C@H](O)[C@H]3COC(=O)[C@@H]23)OCO4)cc(OC)c1OC [AXL-1717]
OUT: F

IN: Record request — test call for Cc1cc(C(=O)NOCCO)c(Nc2ccc(I)cc2F)n(C)c1=O [AZD-8330]
OUT: F

IN: Record request — test call for CO[C@H]1C[C@@H]2CC[C@@H](C)[C@@](O)(O2)C(=O)C(=O)N2CCCC[C@H]2C(=O)O[C@H]([C@H](C)C[C@@H]2CC[C@@H](OP(C)(C)=O)[C@H](OC)C2)CC(=O)[C@H](C)/C=C(\C)[C@@H](O)[C@@H](OC)C(=O)[C@H](C)C[C@H](C)/C=C/C=C/C=C/1C [RIDAFOROLIMUS]
OUT: F

IN: Record request — test call for CCS(=O)(=O)N1CCN(c2ccc(Nc3ncc(C(N)=O)c(NC4CC4)n3)cc2)CC1 [Cerdulatinib Hydrochloride]
OUT: T

IN: Record request — test call for COCC(=O)NC/C=C/c1ccc2ncnc(Nc3ccc(Oc4ccc(C)nc4)c(C)c3)c2c1 [CP-724714]
OUT: F

IN: Record request — test call for Cc1nc(NC(=O)N2CCC[C@H]2C(N)=O)sc1-c1ccnc(C(C)(C)C(F)(F)F)c1 [ALPELISIB]
OUT: F

IN: Record request — test call for CN(C[C@@H]1COCCO1)S(=O)(=O)Nc1ccc2ccc3ncc(-c4cnn(C)c4)cc3c(=O)c2c1 [MK-2461]
OUT: F

IN: Record request — test call for Nc1ncnc2c1c(-c1cccc(OCc3ccccc3)c1)cn2[C@H]1C[C@@H](CN2CCC2)C1 [AEW-541]
OUT: F

IN: Record request — test call for NC1(c2ccc(-c3nc4ccn5c(=O)[nH]nc5c4cc3-c3ccccc3)cc2)CCC1 [MK-2206]
OUT: F

IN: Record request — test call for CNC(=O)c1cc(Oc2ccc(NC(=O)Nc3cc(C(C)(C)C)nn3-c3ccc4ncccc4c3)c(F)c2)ccn1 [REBASTINIB]
OUT: F

----------
Target system: Maternal embryonic leucine zipper kinase (Homo sapiens); note: in the data inactive means no Kd found up to 30 µM
Sequence (Q14680 whole entry): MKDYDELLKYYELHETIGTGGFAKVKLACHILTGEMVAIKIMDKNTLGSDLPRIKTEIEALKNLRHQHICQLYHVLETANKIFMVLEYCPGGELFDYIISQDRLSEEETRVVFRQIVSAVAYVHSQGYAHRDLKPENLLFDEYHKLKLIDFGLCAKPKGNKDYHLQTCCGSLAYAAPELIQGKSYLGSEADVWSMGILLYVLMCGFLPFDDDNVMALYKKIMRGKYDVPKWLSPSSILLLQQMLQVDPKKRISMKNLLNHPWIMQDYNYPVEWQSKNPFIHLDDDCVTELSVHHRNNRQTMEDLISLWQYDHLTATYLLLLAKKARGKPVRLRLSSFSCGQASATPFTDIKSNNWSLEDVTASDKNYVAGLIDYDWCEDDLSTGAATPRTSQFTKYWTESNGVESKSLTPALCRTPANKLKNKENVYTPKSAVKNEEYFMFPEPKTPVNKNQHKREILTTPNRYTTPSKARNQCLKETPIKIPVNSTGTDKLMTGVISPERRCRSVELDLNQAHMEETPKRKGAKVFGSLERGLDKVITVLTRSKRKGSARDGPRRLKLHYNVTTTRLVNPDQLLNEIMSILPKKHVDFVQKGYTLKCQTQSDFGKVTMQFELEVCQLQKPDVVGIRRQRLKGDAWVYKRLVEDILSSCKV
Calls of active or inactive are those of the source.
Log the outcome using a class from active, inactive

IN: Record request — test call for "Cc1cc(Nc2ncnc3ccc(NC4=NC(C)(C)CO4)cc23)ccc1Oc1ccn2ncnc2c1"
OUT: inactive

IN: Record request — test call for "NC1(c2ccc(-c3nc4ccn5c(=O)[nH]nc5c4cc3-c3ccccc3)cc2)CCC1"
OUT: inactive

IN: Record request — test call for "C[C@@H](Oc1cc(C(=O)Nc2ccc(C(=O)N3CCN(C)CC3)cc2)nnc1N)c1c(Cl)ccc(F)c1Cl"
OUT: inactive

IN: Record request — test call for "Cc1csc(-c2nnc(Nc3ccc(Oc4ncccc4-c4ccnc(N)n4)cc3)c3ccccc23)c1"
OUT: inactive

IN: Record request — test call for "CNC(=O)c1cccc2cc(Oc3ccnc4cc(OCC5(N)CC5)c(OC)cc34)ccc12"
OUT: inactive

IN: Record request — test call for "CN(C[C@@H]1COCCO1)S(=O)(=O)Nc1ccc2ccc3ncc(-c4cnn(C)c4)cc3c(=O)c2c1"
OUT: inactive

IN: Record request — test call for "CN1C/C=C/CCOc2cccc(c2)-c2ccnc(n2)Nc2cccc(c2)C1"
OUT: inactive

IN: Record request — test call for "Nc1ncnc2c1c(-c1cccc(OCc3ccccc3)c1)cn2[C@H]1C[C@@H](CN2CCC2)C1"
OUT: inactive

IN: Record request — test call for "COc1c(OCCCN2CCOCC2)ccc2c1N=C(NC(=O)c1cnc(N)nc1)N1CCN=C21"
OUT: inactive

IN: Record request — test call for "COc1cc([C@@H]2c3cc4c(cc3[C@H](O)[C@H]3COC(=O)[C@@H]23)OCO4)cc(OC)c1OC"
OUT: inactive

IN: Record request — test call for "Cc1nc(Nc2n[nH]c3c2CN(C(=O)N[C@H](CN(C)C)c2ccccc2)C3(C)C)c2sccc2n1"
OUT: active

IN: Record request — test call for "CCCCCCCCCCCCCCCCCCOP(=O)([O-])OC1CC[N+](C)(C)CC1"
OUT: inactive

IN: Record request — test call for "Cc1cnc(NC(=O)Nc2cc(Br)c(C)cc2OC[C@@H]2CNCCO2)cn1"
OUT: inactive

IN: Record request — test call for "CC(C)c1cc(CNc2nc(Nc3cc(C4CC4)[nH]n3)cc(N3CCN(C)CC3)n2)on1"
OUT: inactive

IN: Record request — test call for O=c1[nH]ccc2cc(OC3CCNCC3)ccc12 [SAR-407899 FREE BASE]
OUT: inactive

IN: Record request — test call for "O=C(Nc1cc(C(F)(F)F)cc(C(F)(F)F)c1)c1cc(Cl)ccc1O"
OUT: inactive

IN: Record request — test call for "Cc1cccc(-c2nn3c(c2-c2ccnc4ccc(C(N)=O)cc24)CCC3)n1"
OUT: inactive

----------
Target system: Mitogen-activated protein kinase kinase kinase kinase 3 (Homo sapiens, UniProt Q8IVH8); note: in the data inactive means no Kd found up to 30 µM
Sequence (Q8IVH8 whole entry): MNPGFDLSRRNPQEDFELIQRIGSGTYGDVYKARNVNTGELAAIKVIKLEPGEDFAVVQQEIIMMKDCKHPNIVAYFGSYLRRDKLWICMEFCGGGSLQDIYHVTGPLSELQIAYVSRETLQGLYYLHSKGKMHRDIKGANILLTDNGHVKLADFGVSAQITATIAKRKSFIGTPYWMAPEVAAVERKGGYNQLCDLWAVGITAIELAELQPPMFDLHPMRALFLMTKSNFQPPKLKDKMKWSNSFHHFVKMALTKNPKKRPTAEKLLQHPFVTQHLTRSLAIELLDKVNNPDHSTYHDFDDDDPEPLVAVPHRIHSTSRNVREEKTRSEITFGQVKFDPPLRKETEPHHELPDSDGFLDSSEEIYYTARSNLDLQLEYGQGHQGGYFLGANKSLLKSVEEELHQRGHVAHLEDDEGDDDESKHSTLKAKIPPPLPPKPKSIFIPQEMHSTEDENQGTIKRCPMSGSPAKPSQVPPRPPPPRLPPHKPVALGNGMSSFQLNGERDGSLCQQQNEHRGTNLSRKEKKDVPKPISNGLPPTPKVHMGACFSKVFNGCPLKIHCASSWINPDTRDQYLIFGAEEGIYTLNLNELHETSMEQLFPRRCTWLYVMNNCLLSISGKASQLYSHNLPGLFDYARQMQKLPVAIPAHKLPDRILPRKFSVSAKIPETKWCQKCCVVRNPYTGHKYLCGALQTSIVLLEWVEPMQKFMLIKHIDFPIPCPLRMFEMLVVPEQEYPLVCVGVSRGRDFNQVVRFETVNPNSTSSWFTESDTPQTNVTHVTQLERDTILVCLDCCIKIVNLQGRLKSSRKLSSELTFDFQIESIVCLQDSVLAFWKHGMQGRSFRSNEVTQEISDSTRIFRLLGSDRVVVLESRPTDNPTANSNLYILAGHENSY
Active and inactive are the calls of the source.
Log the outcome using a class from 1 (yes) (active), 0 (no) (inactive)

IN: Record request — test call for "Nc1ncnc2c1c(-c1cccc(OCc3ccccc3)c1)cn2[C@H]1C[C@@H](CN2CCC2)C1"
OUT: 0 (no)

IN: Record request — test call for "CNC(=O)c1cc(Oc2ccc(NC(=O)Nc3cc(C(C)(C)C)nn3-c3ccc4ncccc4c3)c(F)c2)ccn1"
OUT: 0 (no)

IN: Record request — test call for "COc1cc2c(Nc3ccc(Cl)c(Cl)c3F)ncnc2cc1OC[C@@H]1C[C@@H]2CN(C)C[C@@H]2C1"
OUT: 1 (yes)

IN: Record request — test call for "C#Cc1cccc(Nc2ncnc3cc(OC)c(OCCCCCCC(=O)NO)cc23)c1"
OUT: 0 (no)

----------
Target system: cAMP-dependent protein kinase catalytic subunit gamma (Homo sapiens); note: in the data inactive means no Kd found up to 30 µM
Sequence (P22612 whole entry): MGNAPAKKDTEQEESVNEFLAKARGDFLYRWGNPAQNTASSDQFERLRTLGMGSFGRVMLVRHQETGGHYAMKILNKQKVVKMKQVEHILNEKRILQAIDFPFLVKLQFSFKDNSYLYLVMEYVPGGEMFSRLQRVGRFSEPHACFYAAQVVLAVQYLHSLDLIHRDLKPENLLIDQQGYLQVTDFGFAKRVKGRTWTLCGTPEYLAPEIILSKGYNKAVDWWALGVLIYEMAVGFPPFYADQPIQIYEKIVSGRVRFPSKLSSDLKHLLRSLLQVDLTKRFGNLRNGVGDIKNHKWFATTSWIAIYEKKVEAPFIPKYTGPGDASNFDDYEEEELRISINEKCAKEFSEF
Where a name gives a salt, the structure may show the parent alone. Activity calls are given as the source filed them.
Log the outcome using a class from Yes for active, No for inactive

IN: Record request — test call for "O=C(Nc1c[nH]nc1-c1nc2cc(CN3CCOCC3)ccc2[nH]1)NC1CC1"
OUT: Yes

IN: Record request — test call for "O=C(Nc1nc2cccc(-c3ccc(CN4CCS(=O)(=O)CC4)cc3)n2n1)C1CC1"
OUT: No

IN: Record request — test call for "Cn1ncc(Cl)c1-c1cc(C(=O)N[C@H](CN)Cc2ccc(F)c(F)c2)oc1Cl"
OUT: No

IN: Record request — test call for "CCn1c(C(=O)N(C2CC2)C2CC2)cc2c3c(ncn3C)c(Nc3cc(C)n(C)n3)nc21"
OUT: No

IN: Record request — test call for "CNC(=O)c1cc(Oc2ccc(NC(=O)Nc3cc(C(C)(C)C)nn3-c3ccc4ncccc4c3)c(F)c2)ccn1"
OUT: No

IN: Record request — test call for "COc1c(OCCCN2CCOCC2)ccc2c1N=C(NC(=O)c1cnc(N)nc1)N1CCN=C21"
OUT: No

IN: Record request — test call for "Cc1cc(Nc2ncc(Cl)c(Nc3ccccc3S(=O)(=O)C(C)C)n2)c(OC(C)C)cc1C1CCNCC1"
OUT: No

IN: Record request — test call for "COc1cc2c(Nc3ccc(Cl)c(Cl)c3F)ncnc2cc1OC[C@@H]1C[C@@H]2CN(C)C[C@@H]2C1"
OUT: No

IN: Record request — test call for "CC(=O)NCC(=O)N1[C@@H]2CC[C@H]1c1ccc(Nc3ncc(C(F)(F)F)c(NC4CCC4)n3)cc12"
OUT: No

IN: Record request — test call for "FC(F)(F)c1ccc(/C=C/c2nc(COc3ccc(CCCCn4ccnn4)cc3)co2)cc1"
OUT: No

IN: Record request — test call for "Cc1cnc(NC(=O)Nc2cc(Br)c(C)cc2OC[C@@H]2CNCCO2)cn1"
OUT: No

IN: Record request — test call for "NC(=O)Nc1cc(-c2cccc(F)c2)sc1C(=O)N[C@H]1CCCNC1"
OUT: No

IN: Record request — test call for "CC(C)c1cc(CNc2nc(Nc3cc(C4CC4)[nH]n3)cc(N3CCN(C)CC3)n2)on1"
OUT: No

IN: Record request — test call for "COCC(=O)NC/C=C/c1ccc2ncnc(Nc3ccc(Oc4ccc(C)nc4)c(C)c3)c2c1"
OUT: No

IN: Record request — test call for "N#CC1(c2ccc(NC(=O)c3cccnc3NCc3ccncc3)cc2)CCCC1"
OUT: No

IN: Record request — test call for "C[C@@H](NC(=O)c1ncnc(N)c1Cl)c1ncc(C(=O)Nc2cc(C(F)(F)F)c(Cl)cn2)s1"
OUT: No

IN: Record request — test call for "CNC(=O)c1cccc2cc(Oc3ccnc4cc(OCC5(N)CC5)c(OC)cc34)ccc12"
OUT: No

IN: Record request — test call for "COc1ccc(S(=O)(=O)N(C(C)=O)c2ccccc2/C=C/c2cc[n+]([O-])cc2)cc1"
OUT: No

IN: Record request — test call for "NC(=O)c1c(OCc2c(F)cc(Br)cc2F)nsc1NC(=O)NCCCCN1CCCC1"
OUT: No

IN: Record request — test call for "Nc1ncnc2c1c(-c1cccc(OCc3ccccc3)c1)cn2[C@H]1C[C@@H](CN2CCC2)C1"
OUT: No

IN: Record request — test call for "COc1cc(Nc2ncc3c(n2)-c2ccc(Cl)cc2C(c2c(F)cccc2OC)=NC3)ccc1C(=O)O"
OUT: No

IN: Record request — test call for "COc1cc([C@@H]2c3cc4c(cc3[C@H](O)[C@H]3COC(=O)[C@@H]23)OCO4)cc(OC)c1OC"
OUT: No

IN: Record request — test call for O=c1[nH]ccc2cc(OC3CCNCC3)ccc12 [SAR-407899 FREE BASE]
OUT: No

IN: Record request — test call for "CC(=O)c1cnc2ccc(-c3cc(Cl)c(O)c(Cl)c3)nc2c1N[C@H]1CC[C@H](CN(C)C)CC1"
OUT: No

IN: Record request — test call for "CCCCCCCCCCCCCCCCCCOP(=O)([O-])OC1CC[N+](C)(C)CC1"
OUT: No

IN: Record request — test call for "Cc1csc(-c2nnc(Nc3ccc(Oc4ncccc4-c4ccnc(N)n4)cc3)c3ccccc23)c1"
OUT: No

IN: Record request — test call for CCS(=O)(=O)N1CCN(c2ccc(Nc3ncc(C(N)=O)c(NC4CC4)n3)cc2)CC1 [Cerdulatinib Hydrochloride]
OUT: No

IN: Record request — test call for "O=C(Nc1cc(C(F)(F)F)cc(C(F)(F)F)c1)c1cc(Cl)ccc1O"
OUT: No
